Data provenance: PubChem BioAssay AID248

Listing: T/C of selected compounds
Test system: L1210 leukemia ip in BDF1 mice, survival T/C
Test: NCI In Vivo Anticancer Drug Screen. Data for tumor model L1210 Leukemia (intraperitoneal) in B6D2F1 (BDF1) mice
Settings: endpoint: mean survival time; dose: 50.0 mg/kg/injection; schedule: Q01DX001 (ip); vehicle: saline; higher = longer survival
Inconclusive results and toxic doses are left out.

{"columns": ["Compound", "T/C"],
 "data": [
  ["COC(=O)c1cc(C)cc([N+](=O)[O-])c1C", "91 % of control"],
  ["ClC1=C(Cl)C2(Cl)C3(Cl)C(Cl)=C(Cl)C(Cl)(C34OCCO4)C2(Cl)C12OCCO2 (centres undefined)", "107 % of control"],
  ["CC(=O)/C(=C(/C)OB(F)F)C(C)C", "102 % of control"],
  ["Cc1ccc2c(ccc3nnc(C)n32)c1", "109 % of control"]
]}

====

Test system: L1210 leukemia ip in BDF1 mice, survival T/C
Assay: NCI In Vivo Anticancer Drug Screen. Data for tumor model L1210 Leukemia (intraperitoneal) in B6D2F1 (BDF1) mice
Settings: endpoint: mean survival time; dose: 100.0 mg/kg/injection; schedule: Q04DX003 (ip); vehicle: Klucel (hydroxypropylcellulose) (HPC); higher = longer survival
Toxic doses and inconclusive results are not listed.
# T/C values compiled below
Observable: T/C

{"columns": ["Molecule", "Observable", "Result"],
 "data": [
  ["CC(N=Nc1ccccc1)/N=N/c1nn[nH]n1 (configuration not stated)", "T/C", "100 % of control"],
  ["Cc1cc(C(C)C)cc(C(C)C)c1", "T/C", "94 % of control"],
  ["O=C(OCc1ccccc1)Oc1ccc2ccccc2c1", "T/C", "102 % of control"],
  ["CC(C)(C)NC(C1=CC(C)(C)c2ccccc2C1=O)c1ccccc1 (configuration not stated)", "T/C", "110 % of control"],
  ["Nc1[nH]c(=O)[nH]c(=O)c1Br", "T/C", "100 % of control"],
  ["CC1(CCCc2ccc([N+](=O)[O-])cc2)N=C(N)N=C(N)N1c1ccccc1 (configuration not stated)", "T/C", "121 % of control"],
  ["COC(=O)c1ccccc1N=NNc1ccccc1C(=O)OC", "T/C", "107 % of control"],
  ["C=COC(=O)CCCCCCCCCCCCCCCCC", "T/C", "101 % of control"],
  ["NC(=O)C#CC(N)=O", "T/C", "95 % of control"],
  ["C=C1C=C(c2ccccc2)N(C(=O)c2ccccc2I)CCN1C(=O)c1ccccc1I", "T/C", "114 % of control"],
  ["Cc1ccc(C(=O)C2CC2c2ccccc2)cc1 (configuration not stated)", "T/C", "101 % of control"],
  ["C=CCC(C(C)=O)C(=O)OCC (configuration not stated)", "T/C", "93 % of control"],
  ["Cc1ccccc1CN1CCN(CCOC(c2ccccc2)c2ccccc2Cl)CC1 (configuration not stated)", "T/C", "105 % of control"],
  ["CS(=O)c1ccc([N+](=O)[O-])cc1 (configuration not stated)", "T/C", "98 % of control"],
  ["CCCCCCCCCCCCCCCCN(C)S(=O)(=O)c1ccc(Cl)c(C(F)(F)F)c1", "T/C", "98 % of control"],
  ["CC(C)OC(=O)Nc1ccc(-c2ccc(NC(=O)OC(C)C)cc2)cc1", "T/C", "91 % of control"],
  ["CCOP(=O)(/C(=C\\c1ccccc1)C(=O)c1ccccc1)c1ccccc1 (configuration not stated)", "T/C", "95 % of control"],
  ["CC1(C)CCC2(C)CC=C3OC(=O)CCC3(C)C2C1 (configuration not stated)", "T/C", "102 % of control"],
  ["Cc1ccc(C)c(NC(=O)Oc2ccc3ccccc3c2)c1", "T/C", "107 % of control"],
  ["CCCCCCNS(=O)(=O)c1ccc([N+](=O)[O-])cc1", "T/C", "100 % of control"],
  ["O=[N+]([O-])c1ccc(I)c(F)c1", "T/C", "100 % of control"],
  ["CC/C(=C\\c1ccccc1)[N+](=O)[O-]", "T/C", "103 % of control"],
  ["O=C(c1ccc([N+](=O)[O-])cc1)c1ccccn1", "T/C", "101 % of control"],
  ["S=C(c1ccc2ccccc2n1)N1CCOCC1", "T/C", "100 % of control"],
  ["CC(NC(C)c1ccccc1)c1ccccc1 (configuration not stated)", "T/C", "104 % of control"],
  ["Nc1cccc(Cl)c1", "T/C", "95 % of control"],
  ["CCOC(=O)c1ccc(C(=O)OCC)c(Cl)n1", "T/C", "105 % of control"],
  ["Fc1cccc2ccc(Br)cc12", "T/C", "100 % of control"],
  ["O=C(Nc1ccccc1)c1ccc([N+](=O)[O-])cc1Cl", "T/C", "100 % of control"],
  ["CC(=O)C(C(=O)c1ccccc1)C(c1ccccc1)c1ccccc1 (configuration not stated)", "T/C", "92 % of control"],
  ["CC(C)(Br)C(=O)c1ccc(-c2ccccc2)cc1", "T/C", "100 % of control"],
  ["N#Cc1cc(C#N)c(Cl)nc1N", "T/C", "97 % of control"],
  ["C[N+](C)(C)C(=Nc1ccccc1)c1ccccc1", "T/C", "100 % of control"],
  ["ClC(Cl)(Cl)C1OCOC(C(Cl)(Cl)Cl)OCO1 (configuration not stated)", "T/C", "98 % of control"],
  ["O=C(Nc1cccc(NC(=O)c2ccccc2)c1)c1ccccc1", "T/C", "92 % of control"],
  ["CC(=O)OCc1cc(=O)c(OC(C)=O)co1", "T/C", "112 % of control"],
  ["CNC(=O)Nc1c(C)cccc1C", "T/C", "106 % of control"],
  ["[O-]c1c[n+](C23CCC(c4ccccc42)c2ccccc23)no1", "T/C", "100 % of control"],
  ["OC(CN1CCOCC1)c1ccccc1 (configuration not stated)", "T/C", "98 % of control"],
  ["CCOC(=O)c1[nH]c2c(c1CC(CC)[N+](=O)[O-])CCCC2 (configuration not stated)", "T/C", "93 % of control"],
  ["c1ccc(/C2=C(\\c3ccccc3)CSSSSC2)cc1", "T/C", "98 % of control"],
  ["CC(C)(O)CNC(=O)c1cccc([N+](=O)[O-])c1", "T/C", "94 % of control"],
  ["CC(C)N=Cc1ccccc1O.CC(C)N=Cc1ccccc1O.[Co]", "T/C", "103 % of control"],
  ["CCCN(CCC)N=Nc1ccccc1-c1nc(N)c2ccccc2n1", "T/C", "106 % of control"],
  ["CC12C=CC(CC1)C2OC(=O)c1ccccc1C(=O)O (configuration not stated)", "T/C", "94 % of control"],
  ["CC1(C)C2CC3C(=CCC4C(=O)C=CC(=O)C43)C1C2 (configuration not stated)", "T/C", "95 % of control"],
  ["CC(O)/C(=N/Nc1ccc([N+](=O)[O-])cc1[N+](=O)[O-])C(=O)O (configuration not stated)", "T/C", "91 % of control"],
  ["CC(=O)Oc1cc(-c2ccccc2)c2oc(C)nc2c1-c1ccccc1", "T/C", "101 % of control"],
  ["CCOC(=O)c1[nH]c(C)c(CC(C(=O)OCC)C(=O)OCC)c1C", "T/C", "95 % of control"],
  ["O=C1c2c(ccc3ccccc23)CCC1Br (configuration not stated)", "T/C", "97 % of control"],
  ["CCCCNC(=O)Nc1ccc(OC)cc1OC", "T/C", "92 % of control"],
  ["Oc1ccc(Br)cc1-c1nc2cc(Cl)c(Cl)cc2nc1-c1cc(Br)ccc1O", "T/C", "107 % of control"]
]}
